Data credit: ChEMBL document CHEMBL1149153

Tested Target: Prostaglandin G/H synthase 2 (Homo sapiens) (UniProt P35354)
Sequence (P35354 whole entry): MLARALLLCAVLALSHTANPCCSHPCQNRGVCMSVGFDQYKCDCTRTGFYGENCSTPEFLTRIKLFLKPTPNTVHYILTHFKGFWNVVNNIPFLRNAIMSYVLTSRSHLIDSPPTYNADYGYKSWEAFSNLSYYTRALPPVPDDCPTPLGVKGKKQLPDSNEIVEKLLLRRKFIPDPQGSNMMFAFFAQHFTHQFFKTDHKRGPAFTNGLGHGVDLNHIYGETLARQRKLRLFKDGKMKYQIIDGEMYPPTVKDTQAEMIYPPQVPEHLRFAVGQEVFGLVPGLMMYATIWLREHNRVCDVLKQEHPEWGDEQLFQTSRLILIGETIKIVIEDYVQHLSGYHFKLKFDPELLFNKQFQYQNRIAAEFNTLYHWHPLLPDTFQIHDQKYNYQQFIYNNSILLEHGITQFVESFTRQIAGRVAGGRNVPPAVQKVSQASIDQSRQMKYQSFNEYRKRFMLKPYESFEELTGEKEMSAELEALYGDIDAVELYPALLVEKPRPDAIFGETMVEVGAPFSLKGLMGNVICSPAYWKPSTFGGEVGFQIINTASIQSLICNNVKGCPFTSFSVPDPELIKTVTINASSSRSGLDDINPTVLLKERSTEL
Cond: recombinant enzyme; at 1 µM
Description: Evaluation for percent inhibition of recombinant prostaglandin G/H synthase 2 in human whole blood (HWB) at a concentration of 1 um
Recorded Endpoint: inhibition (%)

{"Compound Structure String": "CS(=O)(=O)c1ccc(-c2cc(CO)nn2CC2CCCCC2)cc1", "inhibition [%]": 0}

a. CS(=O)(=O)c1ccc(-c2cc(CCO)nn2C2CCCCC2)cc1
b. CS(=O)(=O)c1ccc(-c2cc(CO[N+](=O)[O-])nn2C2CCS(=O)(=O)CC2)cc1
For the pair a and b , which entry has the numerically smaller recorded inhibition? Which one? Tell me its label.
a

I. CS(=O)(=O)c1ccc(-c2cc(CO)nn2C2CCS(=O)(=O)CC2)cc1
II. CS(=O)(=O)c1ccc(-c2cc(CO)nn2C2CCCCC2)cc1
// pick larger inhibition from pair: I vs II Which one? Tell me its label.
II
(II: 10%, I: 0%)

a. CS(=O)(=O)c1ccc(C2=C(c3ccccc3)C(=O)OC2)cc1
b. CS(=O)(=O)c1ccc(-c2cc(CO[N+](=O)[O-])nn2CC2CCCCC2)cc1
For the pair a and b , which entry has the numerically smaller recorded inhibition? Which one? Tell me its label.
b
(b: 10%, a: 45%)
